# System: SK-OV-3 ovarian
# Run Description: NCI tumour cell line growth inhibition, 48 h
Readout: GI50

Please state GI50 for every compound in the list that follows.
1. COc1ccc(/C=C/C(=O)/C=C(/C=C/c2ccc(OC)c(OC)c2OC)OB(F)F)c(OC)c1OC
2. CCN1C(=O)N(CC)C2C1NN=c1s/c(=C\c3cnc(C)n3C)c(=O)n12 (stereo unspecified)
3. O=C(CN1CCN(c2ccccn2)CC1)Nc1ccc(Cl)cc1C(=O)c1ccccc1Cl
4. CN1C(=O)C(C)(C)Oc2c(-c3cn(C)c(=O)c4[nH]ccc34)cc(S(C)(=O)=O)cc21
5. COC(=O)[C@]1(C)CC[C@]2(C)CC[C@]3(C)C(=CC(=O)[C@@H]4[C@@]5(C)CCC(=O)NC(C)(C)[C@@H]5CC[C@]43C)[C@@H]2C1
6. CSc1nc(-c2cccc(NC(=O)CCl)c2)c(C#N)c(=O)n1C

3.77 µM
2.74 µM
> 100 µM
0.705 µM
24 µM
12.5 µM

* * *

# Test system: SW-620 colon
# Run Description: NCI tumour cell line growth inhibition, 48 h; in the data active = GI50 below about 0.43 µM; inactive = the rest
Select the matching outcome among Y for active, N for inactive

Take a look at these entries with their results.
CC(=O)N1c2ccc(-c3ccc(C(=O)O)cc3)cc2[C@H](Nc2ccc(Cl)cc2)C[C@@H]1C ... N
CCN1C(=O)N(CC)C2C1NN=c1s/c(=C\c3cnc(C)n3C)c(=O)n12 (stereo not given) ... N
CN1CCN(Cc2ccc(NC(=O)c3cncc(C#Cc4ncc5ccccn45)c3)cc2C(F)(F)F)CC1 ... N
NC(=S)N=Nc1c(O)[nH]c2ccccc12 ... N
COc1ccc(-c2cc3c(N)ncnc3o2)cc1 ... N
COC(=O)C1=C(O)C(C(=O)OC)[C@@]2(O)[C@@H](C(=O)OC)C(c3ccccc3Cl)C[C@@H]1[C@@H]2C(=O)OC (stereo not given in full) ... N

Outcome logged for "Nc1nc(Cl)c2ncn(Cc3ccc(-c4ccc(CCl)cc4)cc3)c2n1" in this assay: N

Identify the outcome logged in this assay for the compound shown: "COc1ccc2c(c1)NC(=O)CN2c1nc(C)nc2ccccc12" Y

Would you mind telling me which call this test gave "CCCC(CCC)C(=O)O" ? N

Field: outcome | Entry: O=C1CC2OCC=C3CN4CCC56c7ccccc7N1C5C2C3CC46 (stereo not given) (tested in a mixture with another compound) N

Can you look up the reported call for "C[C@H](CCCOS(C)(=O)=O)[C@H]1CC[C@H]2[C@@H]3CC[C@@H]4C[C@H](OS(C)(=O)=O)CC[C@]4(C)[C@H]3CC[C@]12C" for me? N

// param item: "COn1cc(C(=O)N=C(SC)SC)c2ccccc21" ; yields the recorded call N

What classification did "O=C1C=C(OCC=C(Cl)Cl)C(=O)c2ccccc21" end up with in this test? N

Give the logged outcome of this assay for the following compound: "NS(=O)(=O)c1ccc(N=Nc2c(=O)[nH]c3ccc4[nH]cccc4c23)cc1" Y

Tell me the assay call for "O=C1/C(=C/c2cccc(F)c2)CN(C(=O)C(Cl)Cl)C/C1=C\c1cccc(F)c1" please. Y

* * *

# System: SK-MEL-5 melanoma
# Run Description: NCI tumour cell line growth inhibition, 48 h
Readout: TGI

Could you tell me TGI for each of these molecules? They are listed below.
1. CC1=C(C(=O)NCc2ccccc2)C(c2ccccc2O)C(C(=O)NCc2ccccc2)=C(C)N1
2. O=[N+]([O-])c1ccc2nc(=S)[nH]n2c1
3. C=[N+](CNC(=O)CNC(=O)C(Cc1ccccc1)NC(=O)OC(C)(C)C)C(=O)CNC(=O)C(Cc1ccccc1)NC(=O)OC(C)(C)C (stereo not drawn)
4. CCOC(=O)c1c[nH]c2cc3c(cc2c1=O)CCS3
5. COC(=O)/C=C/N1CC1
6. COC(=O)c1ccccc1Nc1ccccc1C(=O)OC

["28.6 µM", "> 100 µM", "> 100 µM", "> 100 µM", "> 10 µM", "> 100 µM"]

* * *

Task for the reader: assign each of the following molecules its reported GI50.
# Tested on: SNB-19 CNS
# Run Description: NCI tumour cell line growth inhibition, 48 h

Sample records with GI50:
NC(N)=NC(N)=NCc1ccco1 ... > 1250 µM
COn1cc(C(=O)N=C(SC)SC)c2ccccc21 ... 40.2 µM

Tell me measured GI50 for "COc1cc[nH]c1/C=C1\C(=O)Nc2ccc([N+](=O)[O-])c(N3CC[C@@H](O)C3)c21" please. 0.495 µM

* * *

Assignment: determine reported TGI for the given compounds.
# Tested on: NCI-H522 lung
# Run Description: NCI tumour cell line growth inhibition, 48 h
One number for each entry, in µM.

O=C1NC(=O)C2(CCc3ccc(N(CCCl)CCCl)cc32)N1 (centres undefined) ... 20.3
O=C1Cc2c([nH]c3cc(Br)ccc23)-c2ccccc2N1 ... 52.7

Give a short answer stating reported TGI for "COc1ccc(/C=C/C(=O)/C=C(/C=C/c2ccc(OC)c(OC)c2OC)OB(F)F)c(OC)c1OC" . 4.62

* * *

# System: M14 melanoma
# Run Description: NCI tumour cell line growth inhibition, 48 h
Readout: TGI

CCCNC(=O)c1cc(NC(=O)c2cc(NC(=O)CCS(=O)(=O)OC)cn2C)cn1C ... > 76.7 µM

# map each compound to its TGI
1. CC(=O)CC(=O)ON(C)C(=O)Cc1ccccc1
2. Cc1ccc(C)c(C(=N)c2ccccc2Cc2ccccc2)c1
3. CN1CCN(Cc2ccc(NC(=O)c3[nH]ncc3Nc3cc(OC4CCCC4)ncn3)cc2)CC1
4. NC1=CN(Cc2ccccc2)C2=N/C(=C\c3ccco3)C(=O)N12
5. NS(=O)(=O)c1ccc(N=Nc2c(=O)[nH]c3ccc4[nH]cccc4c23)cc1

> 100 µM
> 100 µM
3.62 µM
> 100 µM
5.64 µM

* * *

# Tested on: LOX IMVI melanoma
# Run Description: NCI tumour cell line growth inhibition, 48 h
For each entry below, report its TGI value.

COc1ccc(OC)c(/C=C/C(=O)c2ccc3cc(OC)ccc3c2)c1 ... > 50 µM
Nc1c(O)c(C(=O)O)cc2ccccc12 ... 22.5 µM
CC1(C)N=C(N)N=C(N)N1CCCCc1ccccc1 ... > 100 µM
Nc1ncnc2c1ncn2C1OC(C(=O)OCCO)C(O)C1O (configuration not stated) ... > 100 µM
NC(=O)N/N=C/c1ccccc1O ... > 100 µM
CCOc1ccccc1NC(=O)C(=O)c1c(O)c2ccc(O)cc2oc1=O ... > 100 µM

Query compound follows.
Please report the measured TGI for "Cc1ccc2c(c1)C/C(=C\c1ccccc1C(=O)O)C2=O" > 100 µM

* * *

Can you tell me GI50 for the items I'm about to list?
# Tested on: MDA-MB-231 breast
# Run Description: NCI tumour cell line growth inhibition, 48 h

Worked set:
CCCC(CCC)C(=O)O ... > 100 µM
CC(=O)Nc1nc(C)c(-c2cc3c(c(S(C)(=O)=O)c2)C(=O)N([C@@H](C)C2CC2)C3)s1 ... 18.6 µM
O=C1/C(=C/c2cccc(F)c2)CN(C(=O)C(Cl)Cl)C/C1=C\c1cccc(F)c1 ... 0.248 µM
COc1ccc2c(c1)C(=O)c1c-2n(CCCNCCO)c(=O)c2cc([N+](=O)[O-])ccc12 ... 0.594 µM
NC(N)=NC(N)=NCc1ccco1 ... > 1250 µM
COc1ccc(CNC(=O)c2c(C)n([O-])c3cc(F)c(F)cc3[n+]2=O)cc1 ... 12.2 µM
CSc1nc(-c2cccc(NC(=O)CCl)c2)c(C#N)c(=O)n1C ... 1.6 µM
O=C1C=C(OCC=C(Cl)Cl)C(=O)c2ccccc21 ... 3.11 µM
Nc1nc(N)c(-c2ccc(Cl)cc2)c(/C=C/c2ccc([N+](=O)[O-])cc2)n1 ... 8.01 µM
O=C1CC2OCC=C3CN4CCC56c7ccccc7N1C5C2C3CC46 (configuration not stated) (tested in a mixture with another compound) ... > 50 mg/L

// batch mode: one GI50 value per listed entry
1. CNCC1CCn2c(c(C3=C(c4cn(C)c5ccccc45)C(=O)NC3=O)c3ccccc32)C1 (configuration not stated)
2. CCN1C(=O)N(CC)C2C1NN=c1s/c(=C\c3cnc(C)n3C)c(=O)n12 (configuration not stated)

2.54 µM
2.5 µM

* * *

For each of the molecules below, state its TGI.
# Test system: OVCAR-4 ovarian
# Run Description: NCI tumour cell line growth inhibition, 48 h

Examples with answers:
CCCC(CCC)C(=O)O ... > 20000 µM
C1COCCOP2(N3CC3)=NP(N3CC3)(=NP(N3CC3)(N3CC3)=N2)OCCOCCO1 (configuration not stated) ... > 100 µM
O=C(O)CSc1nnc2c3ccccc3c3ccccc3c2n1 ... > 100 µM

Field: TGI. Fill in for each record below.
1. NC(N)=NC(N)=NCc1ccco1
2. N#CC1([N+](=O)[O-])C=C1c1ccccc1 (configuration not stated)
3. CC(=O)CC(=O)ON(C)C(=O)Cc1ccccc1

["> 1250 µM", "> 100 µM", "> 100 µM"]

Would you mind listing TGI for each of the following molecules?
1. OCC(O)C(OC1OC(CO)C(O)C(O)C1O)c1nn(-c2ccc(Cl)cc2)c2nc3cc(Cl)ccc3nc12 (configuration not stated)
2. O=c1[nH]c(Br)nc2c(N3CCCCC3)c[nH]c12

1: > 100 µM; 2: > 100 µM

Quick batch: TGI for everything below.
1. COC1=CC(=O)C2C(C1=O)[C@@H]1c3ccccc3OC[C@H]21 (some centres not stated)
2. Cc1ccc2c(c1)C/C(=C\c1ccccc1C(=O)O)C2=O

1. > 100 µM
2. > 100 µM

Below is a list of molecules. For each, state its recorded TGI.
1. CCOc1ccccc1NC(=O)C(=O)c1c(O)c2ccc(O)cc2oc1=O
2. CCCCn1c2c(n(CCCC)c1=[Se])-c1c(n(CCCC)c(=[Se])n1CCCC)S[Se][Se]S2

> 100 µM
25.8 µM
